Biological target: HLA-DR DRB1*1302 (DR13) (Homo sapiens, UniProt P01903+P01911, A100E/A169T/K41T/L162R/M171V/P40S/Q125H/Q178H/Q39Y/Q99D/R42S/S66N/T262R/V115G/W38E/Y61H)
Sequence (P01903 26-254 limits assumed, other chains not shown): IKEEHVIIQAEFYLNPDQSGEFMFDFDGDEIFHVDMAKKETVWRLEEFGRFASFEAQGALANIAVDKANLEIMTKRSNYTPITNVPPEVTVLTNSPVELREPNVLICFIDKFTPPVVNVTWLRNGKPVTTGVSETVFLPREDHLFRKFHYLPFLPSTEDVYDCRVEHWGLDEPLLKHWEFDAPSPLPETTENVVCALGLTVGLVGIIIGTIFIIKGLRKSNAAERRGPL
Test: biochemical
Format: binding
Conditions: DRBI *1302
MEASURE: IC50

Incoming: Consider the compound CSCC[C@H](NC(=O)[C@H](CCC(N)=O)NC(=O)[C@@H](NC(=O)[C@H](Cc1ccccc1)NC(=O)[C@H](C)NC(=O)[C@@H](NC(=O)CN)[C@@H](C)O)C(C)C)C(=O)N1CCC[C@H]1C(=O)N[C@@H](C)C(=O)N[C@@H](Cc1c[nH]cn1)C(=O)NCC(=O)N[C@@H](CC(C)C)C(=O)N[C@@H](Cc1ccccc1)C(=O)N1CCC[C@H]1C(=O)N[C@@H](Cc1c[nH]c2ccccc12)C(=O)O and give its measured IC50.
Outgoing: 2820 nM

====

Target: HLA-DR DRB1*0101 (DR1) (Homo sapiens, UniProt P01903+P01911, A100R/D57E/F55L/F60I/F76Y/I96L/L162R/M171V/P40L/Q125E/R42F/V115G/Y59C)
Assay: biochemical
Type: binding
Conditions: DRB1 *0101
MEASURE: pIC50
Formally, pIC50 is defined as -log10 of the concentration c, with c in mol/L.

Worked set:
smiles_representation=CSCC[C@H](NC(=O)[C@H](CCC(N)=O)NC(=O)[C@@H](NC(=O)[C@H](Cc1ccccc1)NC(=O)[C@H](C)NC(=O)[C@@H](NC(=O)CN)[C@@H](C)O)C(C)C)C(=O)N1CCC[C@H]1C(=O)N[C@@H](C)C(=O)N[C@@H](Cc1c[nH]cn1)C(=O)NCC(=O)N[C@@H](CC(C)C)C(=O)N[C@@H](Cc1ccccc1)C(=O)N1CCC[C@H]1C(=O)N[C@@H](Cc1c[nH]c2ccccc12)C(=O)O endpoint_result=8.80
smiles_representation=CC[C@H](C)[C@H](N)C(=O)N[C@@H](CCCNC(=N)N)C(=O)N[C@H](C(=O)N[C@@H](CC(C)C)C(=O)N[C@@H](CCC(=O)O)C(=O)N[C@@H](CC(=O)O)C(=O)N[C@@H](CC(C)C)C(=O)N[C@@H](CC(C)C)C(=O)N[C@@H](CCSC)C(=O)NCC(=O)N[C@H](C(=O)N[C@@H](CC(C)C)C(=O)NCC(=O)N[C@H](C(=O)N[C@H](C(=O)O)C(C)C)[C@@H](C)CC)[C@@H](C)O)[C@@H](C)O endpoint_result=7.80
smiles_representation=CC[C@H](C)[C@H](NC(=O)[C@H](CS)NC(=O)[C@H](Cc1c[nH]cn1)NC(=O)[C@H](C)NC(=O)[C@H](C)NC(=O)[C@@H](NC(=O)[C@H](CC(C)C)NC(=O)[C@@H](NC(=O)[C@H](Cc1c[nH]c2ccccc12)NC(=O)[C@H](CCC(N)=O)NC(=O)[C@@H]1CCCN1C(=O)[C@@H](N)Cc1c[nH]cn1)C(C)C)[C@@H](C)O)C(=O)N[C@@H](CCCNC(=N)N)C(=O)N[C@@H](CC(N)=O)C(=O)N[C@@H](CCCCN)C(=O)O endpoint_result=7.89

Incoming: Consider the compound CSCC[C@H](NC(=O)[C@H](CC(C)C)NC(=O)[C@@H]1CCCN1C(=O)[C@@H](NC(=O)[C@H](CS)NC(=O)[C@H](CC(=O)O)NC(=O)[C@@H](NC(=O)[C@H](CCCNC(=N)N)NC(=O)[C@H](CC(C)C)NC(=O)[C@@H](NC(=O)[C@H](Cc1ccc(O)cc1)NC(=O)[C@@H](N)CC(N)=O)[C@@H](C)O)C(C)C)[C@@H](C)O)C(=O)N[C@@H](Cc1ccc(O)cc1)C(=O)N[C@@H](CO)C(=O)N[C@@H](CC(C)C)C(=O)O and give its measured pIC50.
Outgoing: 5.17

Incoming: Consider the compound CSCC[C@H](NC(=O)CNC(=O)CNC(=O)[C@H](CCCNC(=N)N)NC(=O)[C@@H](NC(=O)[C@H](CCC(N)=O)NC(=O)[C@H](C)NC(=O)[C@@H](NC(=O)[C@@H](NC(=O)[C@H](CC(C)C)NC(=O)[C@H](Cc1c[nH]cn1)NC(=O)[C@H](Cc1ccc(O)cc1)NC(=O)[C@@H](N)CCCCN)[C@@H](C)O)C(C)C)C(C)C)C(=O)N[C@H](C(=O)N[C@@H](Cc1ccccc1)C(=O)O)C(C)C and give its measured pIC50.
Outgoing: 6.86

Incoming: Consider the compound CC(C)C[C@H](NC(=O)CNC(=O)[C@H](Cc1ccccc1)NC(=O)[C@H](CCC(=O)O)NC(=O)[C@H](CCCCN)NC(=O)[C@@H](N)Cc1c[nH]c2ccccc12)C(=O)N[C@@H](CC(=O)O)C(=O)N[C@@H](CO)C(=O)N[C@H](C(=O)N[C@@H](CCC(=O)O)C(=O)N[C@@H](CC(C)C)C(=O)N[C@@H](C)C(=O)N[C@@H](Cc1c[nH]cn1)C(=O)N[C@@H](Cc1ccc(O)cc1)C(=O)N[C@@H](CC(=O)O)C(=O)O)C(C)C and give its measured pIC50.
Outgoing: 5.94

Incoming: Consider the compound CC[C@H](C)[C@H](NC(=O)[C@H](CO)NC(=O)[C@H](CC(C)C)NC(=O)[C@@H](NC(=O)[C@H](CC(C)C)NC(=O)[C@H](CC(=O)O)NC(=O)[C@H](Cc1c[nH]c2ccccc12)NC(=O)[C@@H](N)CCSC)C(C)C)C(=O)N[C@@H](C)C(=O)N[C@@H](CC(C)C)C(=O)N[C@@H](CO)C(=O)N[C@H](C(=O)NCC(=O)N[C@@H](CS)C(=O)N[C@H](C(=O)O)[C@@H](C)O)C(C)C and give its measured pIC50.
Outgoing: 6.69

Incoming: Consider the compound CSCC[C@H](NC(=O)[C@H](CC(=O)O)NC(=O)[C@H](Cc1ccc(O)cc1)NC(=O)[C@H](CC(C)C)NC(=O)[C@@H]1CCCN1C(=O)[C@H](Cc1c[nH]cn1)NC(=O)[C@@H]1CCCN1C(=O)[C@H](Cc1ccccc1)NC(=O)[C@H](CO)NC(=O)[C@H](Cc1c[nH]cn1)NC(=O)[C@H](CO)NC(=O)[C@@H](NC(=O)[C@H](CCC(N)=O)NC(=O)[C@H](Cc1ccccc1)NC(=O)[C@@H](N)C(C)C)C(C)C)C(=O)O and give its measured pIC50.
Outgoing: 7.80

Incoming: Consider the compound CC[C@H](C)[C@H](NC(=O)[C@H](Cc1c[nH]c2ccccc12)NC(=O)[C@@H](NC(=O)[C@@H](N)C(C)C)[C@@H](C)O)C(=O)NCC(=O)N[C@@H](C)C(=O)N[C@@H](C)C(=O)N1CCC[C@H]1C(=O)N[C@@H](CC(C)C)C(=O)N[C@H](C(=O)N[C@@H](CC(C)C)C(=O)N[C@@H](CO)C(=O)N[C@@H](CCCNC(=N)N)C(=O)N[C@H](C(=O)N[C@H](C(=O)O)C(C)C)[C@@H](C)CC)[C@@H](C)CC and give its measured pIC50.
Outgoing: 8.09

====

Target: HLA-B*4501 (Homo sapiens, UniProt P01889, A329T/A65T/A93T/A95T/C349S/D138N/D201E/D98Y/E176V/E187L/E204Q/E69K/H137Y/K202T/L119W/N87E/Q56L/Q94N/R155S/R180D/S121R/S35A/S48T/V127L/V306I/V36M/W191S/Y140L/Y33H/Y91S)
Test: biochemical
Type: binding
pIC50: −log10 of the molar value. No end group written: not given here.
Classification field: enter rule met for pIC50 values not below 7, rule not met for values below it.

Some solved cases for reference:
chain_sequence=AENLWVTVP class_name="rule not met"
chain_sequence=AENLWVTVR class_name="rule not met"
chain_sequence=AENLWVTDY class_name="rule not met"

Incoming: Would you say AENLTVTVY shows pIC50 at minimum 7?
Outgoing: rule not met

Incoming: Would you say AENLWVTVV shows pIC50 at minimum 7?
Outgoing: rule met

Incoming: Would you say FENLWVTVY shows pIC50 at minimum 7?
Outgoing: rule not met

Incoming: Would you say AENLWVNVY shows pIC50 at minimum 7?
Outgoing: rule not met

Incoming: Would you say AETLWVTVY shows pIC50 at minimum 7?
Outgoing: rule not met

Incoming: Would you say AENKWVTVY shows pIC50 at minimum 7?
Outgoing: rule not met

Incoming: Would you say KENLWVTVY shows pIC50 at minimum 7?
Outgoing: rule not met

Incoming: Would you say AENVWVTVY shows pIC50 at minimum 7?
Outgoing: rule not met

Incoming: Would you say YENLWVTVY shows pIC50 at minimum 7?
Outgoing: rule not met

Incoming: Would you say AENLPVTVY shows pIC50 at minimum 7?
Outgoing: rule not met

Incoming: Would you say AENLWVTVW shows pIC50 at minimum 7?
Outgoing: rule not met

Incoming: Would you say AENLWVTVG shows pIC50 at minimum 7?
Outgoing: rule met

Incoming: Would you say AENLWVTLY shows pIC50 at minimum 7?
Outgoing: rule not met

Incoming: Would you say AENLWVTKY shows pIC50 at minimum 7?
Outgoing: rule not met

Incoming: Would you say AENLWVTVM shows pIC50 at minimum 7?
Outgoing: rule met
